Below, each of the compounds is paired with its reported Max Resp value.
Tested on: P. falciparum 3D7 gametocytes
Test: alamarBlue gametocyte viability assay, strain 3D7
Assay type: cell-based, Plasmodium falciparum
Conditions: Malaria Box; DMSO set at 0%, 100 nM epoxomicin set at -100%
// units = %; emit number, no label

Which value of Max Resp has been reported for `CNCCCNc1ccnc2cc(Cl)ccc12` in the records?
-63

----------
System: P. falciparum 3D7 gametocytes
Experiment: alamarBlue gametocyte viability assay, strain 3D7
Type: cell-based, Plasmodium falciparum
Conditions: Malaria Box; DMSO set at 0%, 100 nM epoxomicin set at -100%
quantity: Max Resp (%)
Field format: number, assumed %, no unit text.

Past entries and their recorded results:
1. Cc1cc(Nc2cccc(F)c2)nc(NCc2ccccc2)n1	-60
2. O=C(CCc1ccco1)NC1CCN(CC2(c3ccc(Cl)cc3)CCC2)CC1	-51
3. FC(F)(F)c1cccc(Nc2nc3ccccc3nc2Nc2cccc(C(F)(F)F)c2)c1	-98
4. COc1ccccc1CNC(=O)CCn1c(=O)[nH]c2ccccc2c1=O	-1
5. CCCc1c(CC)c(=N)c2ccccc2n1C	-53
6. CC1=C(CC(=O)c2cccc([N+](=O)[O-])c2)C(=O)c2ccccc2C1=O	-116

Consider the compound shown here: `COc1cc(OC)c(N(C)C(=O)c2cc3c(s2)-c2ccccc2S(=O)(=O)C3)cc1Cl` What is its recorded Max Resp?
-74

Quick check: Max Resp of CC1(c2ccccc2)Nc2ccccc2-c2nc3ccccc3n21 (stereo not shown) ?
-84

If you can, please state the reported Max Resp value of `COc1ccc(-n2ccnc2SCC(=O)Nc2cc(C)ccc2C)c(OC)c1` .
-8

Item under review: `CCOc1ccc(Nc2ccnc3cc(Cl)ccc23)cc1` . Reported Max Resp?
-38

Max Resp for `CC(C)(C)C(=O)Nc1ccc(C(=O)Nc2cccc(-c3nc4ccccc4[nH]3)c2)cc1` ?
-23

----------
System: P. falciparum 3D7 gametocytes
Experiment: alamarBlue gametocyte viability assay, strain 3D7
Format: cell-based, Plasmodium falciparum
Conditions: Malaria Box; DMSO set at 0%, 100 nM epoxomicin set at -100%
quantity: Max Resp (%)
Answer in %, number only, no unit symbol.

Guide cases for Max Resp, answers given:
1) COc1ccc2nc(C)cc(Nc3ccccc3O)c2c1	-66
2) COc1ccc(C(=O)NC(c2ccccc2Cl)c2cc(Cl)c3cccnc3c2O)cc1 (stereo not drawn)	-83
3) CCOc1cc2c(cc1OCC)C(c1cc(Cl)c(O)c(OCC)c1)NCC2 (stereo not drawn)	-81
4) COc1ccc(CCN2C(=O)c3[nH]nc(-c4cc(Cl)c(C)cc4O)c3C2c2ccccc2F)cc1 (stereo not drawn)	-70

Suppose we examine the compound `O=[N+]([O-])c1ccc(C=NNc2nc3ccccc3[nH]2)cc1` ; what Max Resp value has been reported?
-57

Reported Max Resp, compound `O=C(NNc1cc(N2CCCC2)nc(N2CCCC2)n1)c1ccccc1` : ____
-93

If you can, please state the reported Max Resp value of `COc1ccc(CN2CCN(Cc3ccccc3)CC2)c(O)c1` .
-96

Param item = CCOc1cc(Br)c(C(C)NC(=O)c2cccc(OC)c2)cc1OCC (stereo not drawn) ; retrieve measured Max Resp.
-58

What Max Resp value was documented for this compound, `COc1ccc(Nc2nc(NCc3ccccc3)c3ccccc3n2)cc1` ?
-86

----------
Test system: P. falciparum 3D7 gametocytes
Experiment: alamarBlue gametocyte viability assay, strain 3D7
Format: cell-based, Plasmodium falciparum
Details: Malaria Box; DMSO set at 0%, 100 nM epoxomicin set at -100%
Listed here: items and their measured Max Resp.

Examples from the recorded data:
1) CCN(CC)CCCNc1nc(-c2ccc(Cl)cc2)nc2ccccc12 [MMV665961]	-95%
2) COc1ccc2c(=O)cc(C(Cl)(Cl)Cl)oc2c1 [MMV665820]	-101%
3) COc1cccc(NC(=O)Cn2c(C)c(C#N)c3ccccc32)c1 [MMV665826]	-52%
4) COc1ccc2c(c1OC)C(=O)N1c3ccccc3N=C(c3ccc(C)cc3)CC21 (stereo not drawn) [MMV000917]	-63%
5) CCOC(=O)c1ccc2[nH]c(-c3ccccc3)cc(=O)c2c1 [MMV006457]	14%
6) COc1ccc(-c2cc3c(nn2)-c2ccccc2C3=O)cc1 [MMV666026]	0%

Find the recorded Max Resp belonging to COc1ccc(OC)c(C2C3=C(CC(C)(C)CC3=O)N(c3ccc(Cl)c(Cl)c3)C3=C2C(=O)CC(C)(C)C3)c1 [MMV007208] and report it.
-28%

What Max Resp value was documented for this compound, c1ccc2cc3c(Nc4ccc(N5CCOCC5)cc4)ccnc3cc2c1 [MMV006861] ?
-63%

State the recorded Max Resp for this entry: COc1ccc(Nc2cc(C)nc(NCc3ccccc3)n2)cc1 [MMV006825]
-74%

----------
Reported Max Resp values for the following compounds.
Tested on: P. falciparum 3D7 gametocytes
Test: alamarBlue gametocyte viability assay, strain 3D7
Type: cell-based, Plasmodium falciparum
Conditions: Malaria Box; DMSO set at 0%, 100 nM epoxomicin set at -100%
Report the figure along with its unit, number first.

1) CCN(CC)CCNc1ncnc2c1[nH]c1ccc(Br)cc12	-95%
2) COc1cc(SC)ccc1C(=O)N1CCCC(C)C1 (stereo not shown)	-5%
3) Cc1cc(N(C)C)nc(Nc2ccc(NC(=O)Nc3ccccc3)cc2)n1	-73%
4) CCOc1cc(CNC(C)C(O)c2ccccc2)cc(Cl)c1OCC (stereo not shown)	-72%

Using the record for `CCCCOC(=O)c1ccc(Nc2cc(C)nc3ccc(OC)cc23)cc1` , report its Max Resp.
-47%

Using the record for `CCOc1ccc(-c2nc(NC(=O)c3cccc(S(C)(=O)=O)c3)sc2C)cc1` , report its Max Resp.
-15%

Given `N=c1c2ccccc2nnn1-c1cccc(C(F)(F)F)c1` , state its recorded Max Resp.
14%

# get_value(readout='Max Resp', item= `Nc1ccc(-c2nc3cc(Oc4ccc(Oc5ccc6[nH]c(-c7ccc(N)cc7)nc6c5)cc4)ccc3[nH]2)cc1` )
-78%

I am curious: what Max Resp value has been reported for `CCOC(=O)C1(Cc2ccccc2)CCN(Cc2cccc(OC)c2O)CC1` ?
-58%

----------
The reader will find reported Max Resp values listed item by item below.
System: P. falciparum 3D7 gametocytes
Experiment: alamarBlue gametocyte viability assay, strain 3D7
Format: cell-based, Plasmodium falciparum
Conditions: Malaria Box; DMSO set at 0%, 100 nM epoxomicin set at -100%
Use % as the unit, but write only the number.

Recorded Max Resp, per entry:
1) CCOc1cc2c(cc1OCC)C(c1cc(C)c(O)c(C)c1)NCC2.Cl (stereo not shown)	-82
2) O=C(NC1CCCCC1)C(c1cccs1)N(CCc1ccccc1)C(=O)c1ccco1 (stereo not shown)	-29
3) O=C(NC1CCN(Cc2ccccc2)CC1)c1cc(-c2ccncc2)nc2ccc(Cl)cc12	-48
4) COc1ccc2sc(N(Cc3cccnc3)C(=O)c3ccc(C#N)cc3)nc2c1	-40
5) COc1ccc(CCN2CCC(CN(C)Cc3cnn(-c4ccccc4)c3)CC2)cc1	-86
6) Cc1ccc(OCCCCCCNCCO)c(C)c1	-64
7) CCOC(=O)c1cnc2c(C)cccc2c1Nc1ccc(C(C)=O)cc1	3
8) CCOc1c(Br)cc(C2C(C(=O)OC)=CN(C)C=C2C(=O)OC)cc1OC	-76

Next molecule, Max Resp to be filled in.
Find the measured Max Resp: item CCOc1cc2c(cc1OCC)C(c1cc(OC)c(O)cc1Cl)NCC2 (stereo not shown) , target or system P. falciparum 3D7 gametocytes.
-73

----------
System: P. falciparum 3D7 gametocytes
Experiment: alamarBlue gametocyte viability assay, strain 3D7
Format: cell-based, Plasmodium falciparum
Conditions: Malaria Box; DMSO set at 0%, 100 nM epoxomicin set at -100%
quantity: Max Resp (%)
Please respond with the number in % and leave the unit unwritten.

1) N=c1n(CCN2CCCCC2)c2ccccc2n1CC(=O)c1ccc(Cl)c(Cl)c1	-92

# get_value(readout='Max Resp', item= `Cn1c(=O)c2cc(C(=O)NCCCN3CCCCCC3)sc2c2ccccc21` )
-46

----------
Test system: P. falciparum 3D7 gametocytes
Test: alamarBlue gametocyte viability assay, strain 3D7
Format: cell-based, Plasmodium falciparum
Conditions: Malaria Box; DMSO set at 0%, 100 nM epoxomicin set at -100%
quantity: Max Resp (%)
Give just the numeric value; % need not be written.

Sample records with Max Resp:
1) CCOc1c(Cl)cc(CNCC(O)c2ccccc2)cc1OC (stereo not drawn)	-76
2) O=C(Nc1ccc(-c2nc3cc(NC(=O)c4ccc(Cl)cc4)ccc3[nH]2)cc1)c1ccc(Cl)cc1	-94
3) COc1ccc(-c2nc(NC(=O)CS(=O)(=O)c3ccc(F)cc3)sc2C)cc1	-44
4) OC(CNC1CCCC1)Cn1c2ccccc2c2ccccc21 (stereo not drawn)	-93
5) CCOC(=O)c1c[nH]c2c(CC)cccc2c1=O	28

What does the record list as Max Resp for `COc1ccc2nc(C)cc(Nc3cccc(O)c3)c2c1.Cl` ?
-64

For the compound shown here, `Cc1ccc(-c2cc3c(SCC(=O)Nc4cc(C(F)(F)F)ccc4Cl)nccn3n2)cc1` , give the reported Max Resp.
-21

# Max Resp lookup, item Cc1sc(NC(=O)c2ccccc2)c(C(c2cccs2)N2CCN(c3ccccc3)CC2)c1C (stereo not drawn)
-1

Look at this compound and give its reported Max Resp. `CCCCc1c(C)nc2c(OC)cccc2c1O`
24

Value lookup for Max Resp; key = `CCOc1ccc2nc(C)cc(Nc3ccc(Br)cc3)c2c1`
-59

So what's the measured Max Resp for this one? COc1ccc2c(c1)C1(Nc3ccccc3-c3nc4ccccc4n31)C(=O)N2 (stereo not drawn)
-61
